# System: MALME-3M melanoma
# ASSAY_NOTES: NCI tumour cell line growth inhibition, 48 h
ENDPOINT: TGI

[[record]]
compound = "O=C1NC(=S)NNC12c1ccccc1-c1ccccc12"
endpoint = "TGI"
result = "> 10 µM"

[[record]]
compound = "CC(=O)n1c2c(c(=O)n1-c1ccccc1)S(=O)CCC2 (centres undefined)"
endpoint = "TGI"
result = "> 100 µM"

[[record]]
compound = "COC(=O)c1c(O)ccc2c1c1c(n2Cc2ccc(Cl)cc2Cl)C(=O)c2ccccc2C1"
endpoint = "TGI"
result = "> 100 µM"

[[record]]
compound = "O=c1c2ccccc2sc2cccc(NCCCN3CCN(CCCNc4cccc5sc6ccccc6c(=O)c45)CC3)c12"
endpoint = "TGI"
result = "> 100 µM"


====

Entries annotated with measured TGI
# System: HT29 colon
# ASSAY_NOTES: NCI tumour cell line growth inhibition, 48 h
ENDPOINT: TGI

[[record]]
compound = "C[C@@H]1CCC2[C@@H](C)[C@@H](OCCO[C@H]3OC4O[C@@]5(C)CCC6[C@H](C)CCC([C@H]3C)[C@@]46OO5)OC3O[C@@]4(C)CCC1[C@]32OO4 (stereo not given in full)"
result = "> 100 µM"

[[record]]
compound = "Cc1ccc(-c2cc(-c3ccc(Cl)cc3)nc(/N=C3\\C(=O)N(CN4CCOCC4)c4ccc(Cl)cc43)n2)cc1"
result = "43.6 µM"

[[record]]
compound = "COc1ccc(CN(Cc2ccc(OC)cc2)C(=O)CC2(O)C=CCC2)cc1 (stereo not given)"
result = "> 100 µM"

[[record]]
compound = "COc1ccc(/C=N/n2c(-c3ccccc3)n[nH]c2=O)cc1"
result = "> 100 µM"

[[record]]
compound = "Cc1ccc(Cn2c(C)nc3c2C(=O)c2ccccc2C3=O)cc1"
result = "> 100 µM"

[[record]]
compound = "C[C@H]1C2Cc3cc(N)ccc3[C@@]1(C)CCN2CCc1ccccc1"
result = "> 100 µM"

[[record]]
compound = "O=[N+]([O-])c1ccc(S(=O)(=O)N=Ic2ccccc2)cc1"
result = "> 100 µM"

[[record]]
compound = "CN(C)/C=N/n1c2ccccc2c2ccccc21"
result = "> 100 µM"

[[record]]
compound = "O=C(N/N=C1/C(=O)N(c2ccc(Cl)cc2Cl)C(=O)C(=O)C1c1nc2ccccc2o1)c1ccccc1O (stereo not given)"
result = "> 100 µM"

[[record]]
compound = "CCOP(=O)(O)C(C)(C)NC"
result = "> 100 µM"

[[record]]
compound = "CN(CCN(C)C(=S)NN)C(=S)NN"
result = "> 100 µM"

[[record]]
compound = "COc1cccc2c1C(=O)c1c(O)c3c(c(O)c1C2=O)C[C@@](O)(C(=O)CO)C[C@@H]3OC1CC(N)C(OC)C(C)O1 (stereo not given in full)"
result = "1.66 µM"

[[record]]
compound = "COc1ccc(OC)c(N2C(=O)CSC2c2cc(OC)c(OC)c(OC)c2)c1 (stereo not given)"
result = "> 100 µM"

[[record]]
compound = "CC(/C=N\\NC(=S)N1CCCCC1)=N/NC(=S)N1CCCCC1"
result = "62.4 µM"

[[record]]
compound = "S=c1[nH]n2c(COc3cccc(OCc4nnc5sc(=S)[nH]n45)c3)nnc2s1"
result = "> 100 µM"


====

# Test system: CAKI-1 renal
# ASSAY_NOTES: NCI tumour cell line growth inhibition, 48 h
ENDPOINT: TGI

[[record]]
compound = "COc1ccc(CN(Cc2ccc(OC)cc2)C(=O)CC2(O)C=CCC2)cc1 (stereo not drawn)"
result = "> 100 µM"

[[record]]
compound = "Cc1ccsc1/C=N/Nc1ccc2ccccc2n1"
result = "> 100 µM"

[[record]]
compound = "O=C1CC(C[C@H](O)C2CCCCC2O)CC(=O)N1Cc1ccccc1 (stereo partly drawn)"
result = "> 100 µM"

[[record]]
compound = "NC12Oc3cc(O)cc(O)c3C1(c1ccc(Cl)cc1)c1c(O)cc(O)cc1O2 (stereo not drawn)"
result = "> 100 µM"

[[record]]
compound = "N#C/C(N)=C(\\C#N)NC=NCc1ccccc1"
result = "> 100 µM"

[[record]]
compound = "COC(=O)CN(C)P(=O)(N1CC1)N1CC1"
result = "> 100 µM"

[[record]]
compound = "CCCC(O)C(NC(=O)CCl)C(=O)O (stereo not drawn)"
result = "> 100 µM"

[[record]]
compound = "COc1cc2c(cc1O)C1C(O)C(O)C=C3CCN(C2)C31 (stereo not drawn)"
result = "10.1 µM"

[[record]]
compound = "COC(=O)[C@]1(C)CCCC2(C)C1CC[C@H]1C=C(C)[C@H]3CCC12C3 (stereo partly drawn)"
result = "> 100 µM"

[[record]]
compound = "COC(=O)C1C=CN(N(C)C)C2=C1C(=O)c1c(O)cccc1C2=O (stereo not drawn)"
result = "5.7 µM"

[[record]]
compound = "Cc1cn(CCCCCOC(=O)NC(CCCN=C(N)N)C(=O)O)c(=O)[nH]c1=O (stereo not drawn)"
result = "> 100 µM"

[[record]]
compound = "O=C(NS(=O)(=O)OCC(Cl)(Cl)Cl)SCCC(F)(F)C(F)(F)C(F)(F)C(F)(F)C(F)(F)C(F)(F)F"
result = "92.7 µM"

[[record]]
compound = "Oc1ccc(-c2nc(-c3ccc(F)cc3)c(-c3ccc4ccccc4n3)[nH]2)cc1"
result = "31.3 µM"


====

# System: HCT-15 colon
# ASSAY_NOTES: NCI tumour cell line growth inhibition, 48 h
Each entry below lists one item and its recorded TGI value.
ENDPOINT: TGI

[[record]]
compound = "COC(=O)c1c(O)ccc2c1c1c(n2Cc2ccc(Cl)cc2Cl)C(=O)c2ccccc2C1"
result = "> 100 µM"

[[record]]
compound = "O=C(CSc1nnc(-c2ccc(N=Cc3ccc(Cl)cc3)cc2)o1)Nc1ccc(Cl)cc1"
result = "> 100 µM"

[[record]]
compound = "Cn1cnc([N+](=O)[O-])c1S(=O)(=O)Oc1ccccc1"
result = "> 28.4 µM"

[[record]]
compound = "Cc1c(CNc2ccc(C(=O)NC(CC(=O)O)C(=O)O)cc2)ccc2nc(N)nc(N)c12 (stereo unspecified)"
result = "> 1000 µM"

[[record]]
compound = "O=C(CC(O)(C(F)(F)F)C(F)(F)F)c1cc(CC(=O)C(O)(C(F)(F)F)C(F)(F)F)cc(CC(=O)C(O)(C(F)(F)F)C(F)(F)F)c1"
result = "> 8.79 µM"

[[record]]
compound = "CC(C)(C)c1cc(C(CO)OCCOCCO)cc(C(C)(C)C)c1O (stereo unspecified)"
result = "> 100 µM"


====

# Test system: SW-620 colon
# ASSAY_NOTES: NCI tumour cell line growth inhibition, 48 h; in the data active means GI50 below about 0.43 µM; inactive means the rest
Possible outcomes: YES for active, NO for inactive

[[record]]
compound = "Nc1c(C(=O)Nc2cccc(Br)c2)sc2nc3c(cc12)C(=O)CCC3"
assigned_class = "YES"

[[record]]
compound = "Cc1cn2c(/C=C3\\C(=O)Nc4ccc(O)cc43)c(-c3ccc(Cl)cc3)nc2s1"
assigned_class = "NO"

[[record]]
compound = "COc1cc(C2c3cc4c(cc3C(O)C(CO)C2CO)OCO4)cc(OC)c1OC (stereo not drawn)"
assigned_class = "YES"


====

In this section, each of the molecules is paired with its reported log10 of TGI.
# System: MALME-3M melanoma
# ASSAY_NOTES: NCI tumour cell line growth inhibition, 48 h
ENDPOINT: log10 of TGI (log10 of the value in µM)

[[record]]
molecule = "O=C(NC(CO)Cc1ccc(Oc2cc(CC(CO)NC(=O)OCc3ccccc3)ccc2OC(=O)OCc2ccccc2)cc1)OCc1ccccc1 (stereo unspecified)"
quantitative_result = 1.50

[[record]]
molecule = "CC(C)C[C@H]1[C@@H](OCc2ccccc2)COS(=O)N1[C@H](C)c1ccccc1 (stereo partly specified)"
quantitative_result = 1.68

[[record]]
molecule = "COc1cccc2c1C(=O)c1c(O)c3c(c(O)c1C2=O)C[C@@](O)(C(=O)CO)C[C@@H]3OC1CC(N)C(OC)C(C)O1 (stereo partly specified)"
quantitative_result = -0.55

[[record]]
molecule = "O=C(c1ccc(F)c(F)c1Nc1ccc(I)cc1F)N1CC(O)([C@@H]2CCCCN2)C1"
quantitative_result = -1.88

[[record]]
molecule = "COc1cc2c(cc1O)C1C(O)C(O)C=C3CCN(C2)C31 (stereo unspecified)"
quantitative_result = 0.59

[[record]]
molecule = "COc1ccncc1C#Cc1cncc(C(=O)Nc2ccc(CN3CCN(C)CC3)c(C(F)(F)F)c2)c1"
quantitative_result = 1.37

[[record]]
molecule = "COc1ccc(OC)c(C2Cc3cnc4nc(N)nc(N)c4c3C2)c1 (stereo unspecified)"
quantitative_result = 1.67

[[record]]
molecule = "COc1c(OC)c(OC)c(C(=O)/C=C/c2ccccc2)c(OC)c1OC"
quantitative_result = 1.48

